Numbers sourced from PubChem BioAssay (NCI).

- experiment-description: NCI Yeast Anticancer Drug Screen. Data for the wt1 strain (AID 149);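 note: 0% = growth of vehicle-treated wt1 cultures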
- conditions-used: S. cerevisiae wt1 strain (SPY 50644) growth inhibition; at 11.0 µM; hits give high values
This is part of a sample that, as a whole, favours compounds with a hit. Of some 79,000 tested, about 15% had one in any assay.
Returns one of Satisfied or Not satisfied; Satisfied when growth inhibition is >= -10%.

Consider the following illustrative entries.
molecule: [N-]=[N+]=NC1(c2ccccc2)C(=O)Nc2ccccc2C1=O (stereo not given)
qualitative-label: Satisfied
//
molecule: COc1cc2oc3ccccc3c(=O)c2cc1CSc1ccccc1N
qualitative-label: Satisfied
//
molecule: NC(CS)C(=O)NCCNc1ccc(NCCNC(=O)C(N)CS)c2c1C(=O)c1c(O)ccc(O)c1C2=O (stereo not given)
qualitative-label: Not satisfied

input: Answer whether growth inhibition of `CCC(/C=C/c1ccccc1)=N\Nc1ccc(Cl)c(Cl)c1` is greater than or equal to -10%.
output: Satisfied

input: Hi team, for C[C@H](CCC1=NC(C)(C)CO1)C1CCC2[C@@H]3C(O)C[C@@H]4CC(O)CC[C@]4(C)C3CC[C@@]21C (stereo not given in full) , is the recorded growth inhibition at or above -10%?
output: Not satisfied

----------
- experiment-description: NCI Yeast Anticancer Drug Screen. Data for the cln2 rad14 strain (AID 165);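 note: 0% = growth equal to vehicle treated cultures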
- conditions-used: S. cerevisiae cln2 rad14 strain, at 50.0 µM (retest, dose inferred, filed as 5.0)
This is part of a sample that, as a whole, favours compounds with a hit. Of some 79,000 tested, about 15% had one in any assay. The source made the active and inactive calls. Rule as the data show it: active = growth inhibition above about 70%; inactive = the rest.
Allowed answers: active, inactive

molecule: CC(C)(C)c1ccc2c(c1)C(=O)c1ccccc1C2=O
qualitative-label: inactive

molecule: O=C(O)CNC(c1ccccc1)(c1ccccc1)c1ccccc1
qualitative-label: active

molecule: Cc1cc(C)c(S(=O)(=O)c2ccc(Cl)cc2)c(C)c1
qualitative-label: inactive

molecule: Fc1cc(F)c(F)c(S)c1F
qualitative-label: active

molecule: O=S1(=O)CCC2=CC(C(F)(F)F)=CC(C(F)(F)F)=CN21
qualitative-label: active

molecule: O=C1C=C(NCCc2cc(Br)c(O)c(Br)c2)C(=O)c2ncccc21
qualitative-label: active

molecule: CC(=O)CC(c1ccccc1)c1c(O)c2ccccc2oc1=O (stereo unspecified)
qualitative-label: active

molecule: CC(C)[Si]1(C(C)C)OCC2OC(n3cnc4c(N)ncnc43)C(N)C2O[Si](C(C)C)(C(C)C)O1 (stereo unspecified)
qualitative-label: active

molecule: CCCCCCCCN1COCC(COc2ccccc2C)OC1 (stereo unspecified)
qualitative-label: inactive

molecule: CCOC(=O)/C(=C/c1cccc(Cl)c1)N(CC)CC
qualitative-label: active

input: Hi team, can someone confirm the assay call for `CCC(/C=C/c1ccccc1)=N\Nc1ccc(Cl)c(Cl)c1` ?
output: active

----------
- experiment-description: NCI Yeast Anticancer Drug Screen. Data for the sgs1 mgt1 strain (AID 161);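 note: 0% = growth of cultures given vehicle only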
- conditions-used: S. cerevisiae sgs1 mgt1 strain, at 5.0 µM (retest, dose inferred, filed as 0.5), hits give high values
Compounds without any hit were thinned out: in the full panel of roughly 79,000, 15% have a hit. The source made the active and inactive calls. No stated cut-off is given here; in the data, active means growth inhibition above about 70%; inactive means the rest.
Reported values of growth inhibition for individual entries

Guide cases for growth inhibition, answers given:
molecule: O=[N+]([O-])c1ccc2nc(=S)[nH]n2c1
growth inhibition: -58% (inactive)
--
molecule: CCC(=O)Nc1ccc(N=NN(C)C)cc1
growth inhibition: -65% (inactive)
--
molecule: NC(CCCCCCCCCCCCC(N)C(=O)c1ccccc1)C(=O)c1ccccc1 (stereo unspecified)
growth inhibition: -10% (inactive)
--
molecule: COc1cc(C2C3=C(COC3=O)Oc3cc4c(cc32)OCO4)cc(OC)c1O (stereo unspecified)
growth inhibition: -3% (inactive)
--
molecule: O=C1Nc2ccc(Br)cc2C1=Nc1cccnc1
growth inhibition: -3% (inactive)

input: Item `CCOC(=O)/C(=C\c1ccc(F)cc1)C(C)=O` : provide growth inhibition
output: 21% (inactive)
